biological target: STING (Homo sapiens, UniProt Q86WV6, G230A/H232R/R293Q/R71H); construct: host or cells: THP1-Dual KO-IFNAR2 cells; assay: STING reporter assay: luciferase reporter activity in THP1-Dual KO-IFNAR2 cells stimulated with 2'3'cGAMP; assay type: cell-based; conditions: 2′3′cGAMP 15 μM final, 24h, read-out: hSTING: EC50
Sequence (Q86WV6 whole entry R71H/G230A/H232R/R293Q): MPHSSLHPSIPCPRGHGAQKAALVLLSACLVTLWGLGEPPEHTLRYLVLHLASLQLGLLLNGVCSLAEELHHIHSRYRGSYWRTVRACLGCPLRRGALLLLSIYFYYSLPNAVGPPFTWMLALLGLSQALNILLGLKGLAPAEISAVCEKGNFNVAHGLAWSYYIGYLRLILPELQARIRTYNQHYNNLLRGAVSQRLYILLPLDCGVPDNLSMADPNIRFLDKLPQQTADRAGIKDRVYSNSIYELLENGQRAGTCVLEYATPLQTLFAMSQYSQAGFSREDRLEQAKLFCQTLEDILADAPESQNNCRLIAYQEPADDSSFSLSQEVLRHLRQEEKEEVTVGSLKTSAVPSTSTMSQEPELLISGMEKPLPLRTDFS

compound | target | EC50
CC(C)n1cc(-c2cc3c(NC(=O)C(=O)Nc4ccc(C(F)(F)F)cc4)c[nH]c3cc2F)cn1 | STING (Homo sapiens, UniProt Q86WV6, G230A/H232R/R293Q/R71H) | 0.2 to 1 µM
O=C(Nc1c[nH]c2cc(F)c(F)cc12)C(=O)N[C@H]1CC[C@@H](OCC(F)F)CC1 | STING (Homo sapiens, UniProt Q86WV6, G230A/H232R/R293Q/R71H) | 1 to 5 µM
O=C(Nc1ccc(C(F)(F)F)cc1)C(=O)Nc1c[nH]c2ccc(I)cc12 | STING (Homo sapiens, UniProt Q86WV6, G230A/H232R/R293Q/R71H) | 0.2 to 1 µM
O=C(Nc1c[nH]c2cc(F)c(F)cc12)C(=O)NC1CCN(c2ccc(C(F)(F)F)cn2)C1 (centres unmarked) | STING (Homo sapiens, UniProt Q86WV6, G230A/H232R/R293Q/R71H) | 0.2 to 1 µM
O=C(NCc1cncc(C(F)(F)F)c1)C(=O)Nc1c[nH]c2cc(F)c(F)cc12 | STING (Homo sapiens, UniProt Q86WV6, G230A/H232R/R293Q/R71H) | 0.2 to 1 µM

----------
Molecular target: STING (Homo sapiens, UniProt Q86WV6, G230A/H232R/R293Q/R71H)
Test: STING reporter assay: luciferase reporter activity in THP1-Dual KO-IFNAR2 cells stimulated with 2'3'cGAMP
Conditions: 2′3′cGAMP 15 μM final, 24h, read-out: hSTING: EC50
Description: STING pathway activation by the compounds described herein was measured using THIP1-Dua1™ cells (KO-IFNAR2). […] 2 mL of solution A and 2 ml Solution B was mixed and incubated for 20 min at room temperature (RT). […] Luciferase reporter activity was then measured. EC50 values were calculated by using standard methods known in the art. […] Luciferase reporter activity was then measured. EC50 values were calculated by using standard methods known in the art.
pEC50: −log10 of the molar value.

compound | pEC50
O=C(Nc1c[nH]c2cc(F)c(F)cc12)C(=O)NC1CCN(c2cccnc2)C1 (centres unmarked) | 5.30 to 6.00
O=C(Nc1c[nH]c2cc(F)c(F)cc12)C(=O)N[C@H]1C[C@H](Oc2cncc(C(F)(F)F)c2)C1 | 6.00 to 6.70
O=C(Nc1ccc2c(c1)OC(F)(F)O2)C(=O)Nc1c[nH]c2cc(F)c(F)cc12 | 6.00 to 6.70
O=C(NCC1CC12CCCCC2)C(=O)Nc1c[nH]c2cc(F)c(F)cc12 (centres unmarked) | 6.00 to 6.70
O=C(NCc1cccc(N2CCCCC2)c1)C(=O)Nc1c[nH]c2cc(F)c(F)cc12 | 6.00 to 6.70

----------
target: STING (Homo sapiens, UniProt Q86WV6, G230A/H232R/R293Q/R71H); test: STING reporter assay: luciferase reporter activity in THP1-Dual KO-IFNAR2 cells stimulated with 2'3'cGAMP; conditions: 2′3′cGAMP 15 μM final, 24h, read-out: hSTING: EC50
pEC50: −log10 of the molar value.
metric: pEC50

compound | observed_value
N#Cc1cc(F)c2[nH]cc(NC(=O)C(=O)NCc3ccc(C(F)(F)F)c(Cl)c3)c2c1 | 6.00 to 6.70
O=C(Nc1ccc(C(F)(F)F)cn1)C(=O)Nc1c[nH]c2cc(F)c(F)cc12 | 6.00 to 6.70
O=C(Nc1c[nH]c2cc(F)c(F)cc12)C(=O)N[C@H]1CC[C@H](Oc2ccc(C(F)(F)F)nc2)CC1 | 6.00 to 6.70
O=C(Nc1c[nH]c2cc(F)c(F)cc12)C(=O)NC(c1ccccc1)C(F)(F)F (single isomer, unassigned) [Compound 240] | 6.00 to 6.70
O=C(Nc1c[nH]c2cc(F)c(F)cc12)C(=O)N1CCN(c2ccc(CC(F)(F)F)cn2)CC1 | 6.00 to 6.70
O=C(NCc1cccc(OC(F)(F)F)c1)C(=O)Nc1c[nH]c2cc(F)c(F)cc12 | 6.00 to 6.70
Cc1cc(NC(=O)C(=O)Nc2c[nH]c3cc(F)c(F)cc23)cc(C(F)(F)F)c1 | 6.70 to 7.40
CC(NC(=O)C(=O)Nc1c[nH]c2cc(F)c(F)cc12)c1cc(C(F)(F)F)c(Cl)cn1 (single isomer, unassigned) [Compound 260] | 5.30 to 6.00
Cc1c(CNC(=O)C(=O)Nc2c[nH]c3cc(F)c(F)cc23)cccc1C(F)(F)F | 6.00 to 6.70
